Reference for the values: patent US20190144541A1

- TESTED_TARGET: T1, PD-1 (analyte in the BIAcore X100 assay) (UniProt Q15116 25-167, limits assumed)
- T1 construct: also called Programmed Cell Death 1
- T1 sequence (Q15116 25-167 limits assumed): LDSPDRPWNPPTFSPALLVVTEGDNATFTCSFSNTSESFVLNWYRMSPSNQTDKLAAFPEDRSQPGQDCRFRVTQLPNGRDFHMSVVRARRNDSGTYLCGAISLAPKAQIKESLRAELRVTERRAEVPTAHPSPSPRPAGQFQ
- RUN_DESCRIPTION: SPR, BIAcore X100, antibody captured by anti-human IgG on CM5 chip, PD-1 as analyte
QUANTITY_NAME: koff

DFPD1-10 full-length anti-PD-1 monoclonal antibody (antibody, human IgG4 S228P, kappa, V domains shown, Expressed in HEK293E cells and purified on protein A) VH: QVQLVESGGGVVQPGRSLRLDCKASGITFSNYGMHWVRQAPGKGLEWVAVIWYDSSRKYYADSVKGRFTISRDNSKNTLFLQMNSLRAEDTAVYYCATNNDYWGQGTLVTVSS VL: DIQMTQSPSSLSASVGDRVTITCRASQSVSNYLDWYQQKPGKAPKLLIYDASTRATGVPSRFSGSGSGTDFTLTISSLQPEDFATYYCQQNMQLPLTFGQGTKVEIKR: 0.00013 s⁻¹

Ask | Entry under review: DFPD1-12 full-length anti-PD-1 monoclonal antibody (antibody, human IgG4 S228P, kappa, V domains shown, Expressed in HEK293E cells and purified on protein A) VH: QVQLVESGGGVVQPGRSLRLDCKASGITFSNYGMHWVRQAPGKGLEWVAVIWYDGSKKYYADSVKGRFTISRDNSKNTLFLQMNSLRAEDTAVYYCATNNDYWGQGTLVTVSS VL: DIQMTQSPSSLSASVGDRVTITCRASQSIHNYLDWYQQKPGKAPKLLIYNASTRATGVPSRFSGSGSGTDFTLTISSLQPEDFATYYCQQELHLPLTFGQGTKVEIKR . Reported koff?
Reply | 0.000298 s⁻¹
